- target.system: pan-HDAC
- protocol.description: In vitro enzyme inhibition assay - HDAC (HDAC-Glo I/II), pan-HDAC
- Type: biochemical
Where a name gives a salt, the structure may show the parent alone.
Collected IC50 values appear next to each entry.
The reply should contain only the number, in nM.

| compound | target.system | IC50 / nM |
| --- | --- | --- |
| N#Cc1ccc(-c2c(-c3ccc(/C=C/C(=O)NO)cc3)cnc(N3CCC(N)CC3)c2C#N)cc1F [Example 63, diformate] | pan-HDAC | 6.22 |

Prompt: State the recorded IC50 for this entry: COc1ccc(-c2c(OCCCCCCC(=O)NO)cc(N3CC4CC3CC4N)nc2-c2ccc(C#N)c(F)c2)cc1O (stereo not drawn) [Example 15, hydrochloride]
Completion: 27.5

Prompt: State the recorded IC50 for this entry: N#Cc1ccc(-c2c(-c3ccc(N4CCOCC4)c(O)c3)cnc(N3CCC(NCc4ccc(/C=C/C(=O)NO)cn4)CC3)c2C#N)cc1F [Example 246, formate]
Completion: 5.38

Prompt: State the recorded IC50 for this entry: COc1ccc(-c2cnc(N3CCC(NCc4ccc(/C=C/C(=O)NO)cc4)CC3)c(C#N)c2-c2cnc(C#N)c(F)c2)cc1O [Example 249, formate]
Completion: 0.86

Prompt: State the recorded IC50 for this entry: COc1ccc(-c2cnc(N3CCC(NCc4ccc5sc(C(=O)NO)cc5c4)CC3)c(C#N)c2-c2ccc(C#N)c(F)c2)cc1O [Example 173, formate]
Completion: 114

Prompt: State the recorded IC50 for this entry: N#Cc1ccc(-c2c(-c3ccc(Cl)c(O)c3)cnc(N3CCC(NCc4ccc(/C=C/C(=O)NO)cn4)CC3)c2C#N)cc1F [Example 239, formate]
Completion: 10.2

====

- Tested on: NCI-H526 cells
- protocol.description: In vitro cell inhibition assay - NCI-H526 cell proliferation (CellTiter-Glo)
- Type: cell-based
- setup.conditions: Homo sapiens, NCI-H526, 120 h, H526 small cell lung cancer cell proliferation, 5 days
Counter-ions that a name gives are not always drawn.
Collected IC50 values appear next to each entry.
Report field: quantity (unit follows the number).

| compound | IC50 |
| --- | --- |
| CC(C)(O)COc1ccc(-c2cnc(N3CCC(NCc4ccc(/C=C/C(=O)NO)nc4)CC3)c(CC#N)c2-c2ccc(C#N)c(F)c2)cc1O [Example 221, formate] | 29 nM |
| N#Cc1ccc(-c2c(-c3ccc(CO)c(O)c3)cnc(N3CCC(NCc4ccc(/C=C/C(=O)NO)cc4)CC3)c2C#N)cc1F [Example 131, formate] | 3.54 nM |
| N#Cc1ccc(-c2c(-c3ccc(OC(F)F)c(O)c3)cnc(N3CCC(NCc4ccc(/C=C/C(=O)NO)cc4)CC3)c2C#N)cc1F [Example 124] | 20.6 nM |

Prompt: State the recorded IC50 for this entry: COc1ccc(-c2cnc(N3CCC(NCc4ccc(/C=C/C(=O)NO)c(OC)c4)CC3)c(C#N)c2-c2ccc(C#N)c(F)c2)cc1O [Example 108, formate]
Completion: 13.8 nM

====

Structures can show the parent of a compound that is named as a salt.
Reported pIC50 for target or system LSD1 (Homo sapiens (Human)), by entry.
pIC50 (log units): -log10 of the concentration in mol/L.

| compound | meas.value |
| --- | --- |
| COc1cc(N2CCC(N)CC2)nc(-c2ccc(C#N)c(F)c2)c1-c1ccc(/C=C/C(=O)NO)c(O)c1 [Example 28, formate] | 9.19 |

Prompt: Look up pIC50 with LSD1 (Homo sapiens (Human)) for this compound: COc1ccc(-c2c(OCCCCCCC(=O)NO)cc(N3C4CCC3CC(N)C4)nc2-c2ccc(C#N)c(F)c2)cc1O (stereo not drawn) [Example 9, hydrochloride]
Completion: 8.74

Prompt: Look up pIC50 with LSD1 (Homo sapiens (Human)) for this compound: N#Cc1ccc(-c2c(-c3ccc(Cl)c(O)c3)cnc(N3CCC(NCc4ccc(/C=C/C(=O)NO)cc4)CC3)c2C#N)cn1 [Example 237]
Completion: 8.76

Prompt: Look up pIC50 with LSD1 (Homo sapiens (Human)) for this compound: CC(C)(O)COc1ccc(-c2cnc(N3CCC(NCc4ccc(/C=C/C(=O)NO)nc4)CC3)c(CC#N)c2-c2ccc(C#N)c(F)c2)cc1O [Example 221, formate]
Completion: 7.77

Prompt: Look up pIC50 with LSD1 (Homo sapiens (Human)) for this compound: CC(C)(O)COc1ccc(-c2cnc(N3CCC(C)(NCc4ccc(/C=C/C(=O)NO)cc4)CC3)c(C#N)c2-c2ccc(C#N)c(F)c2)cc1O [Example 215, formate]
Completion: 9.41

Prompt: Look up pIC50 with LSD1 (Homo sapiens (Human)) for this compound: COc1ccc(-c2c(OCCCCCCC(=O)NO)cc(N3CCC(N)CC3)nc2-c2ccc(C#N)c(F)c2)cc1 [Example 8, trifluoroacetate]
Completion: 7.73

Prompt: Look up pIC50 with LSD1 (Homo sapiens (Human)) for this compound: N#Cc1ccc(-c2nc(N3CCC(N)CC3)cc(O)c2-c2ccc(OCCCCCCC(=O)NO)c(O)c2)cc1F [Example 19, hydrochloride]
Completion: 9.07

====

- target.system: HDAC8 (Homo sapiens (Human), UniProt Q9BY41)
- Sequence (Q9BY41 whole entry): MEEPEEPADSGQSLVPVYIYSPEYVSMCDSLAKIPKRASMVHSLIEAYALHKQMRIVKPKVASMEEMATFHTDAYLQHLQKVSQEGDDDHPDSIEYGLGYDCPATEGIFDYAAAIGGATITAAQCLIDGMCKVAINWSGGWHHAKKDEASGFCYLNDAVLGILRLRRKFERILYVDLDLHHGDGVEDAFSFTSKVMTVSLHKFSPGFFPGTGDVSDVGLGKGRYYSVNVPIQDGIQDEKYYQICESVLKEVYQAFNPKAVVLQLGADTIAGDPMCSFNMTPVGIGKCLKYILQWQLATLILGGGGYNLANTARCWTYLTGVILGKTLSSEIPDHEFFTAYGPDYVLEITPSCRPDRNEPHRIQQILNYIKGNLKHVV
- protocol.description: In vitro enzyme inhibition assay - HDAC (HDAC-Glo I/II), HDAC8
- Assay type: biochemical
- setup.conditions: read-out: HDAC IC50 (nM) HDAC 8
Structures can show the parent of a compound that is named as a salt.
Collected IC50 values appear next to each entry.
The reply should contain only the number, in nM.

Use the examples below as a reference point.
| molecule | quantity.unit | IC50 |
| --- | --- | --- |
| N#Cc1ccc(-c2c(-c3ccc(C(F)(F)F)c(O)c3)cnc(N3CCC(NCc4ccc(/C=C/C(=O)NO)cc4)CC3)c2C#N)cc1F | nM | 322 |
| N#Cc1ccc(-c2nc(N3CCC(N)CC3)n3ccnc3c2-c2ccc(OCc3ccc(/C=C/C(=O)NO)cc3)c(O)c2)cc1F [Example 23, hydrochloride] | nM | 320 |
| COc1ccc(-c2cnc(N3CCC(C)(NCc4cnc(/C=C/C(=O)NO)nc4)CC3)c(C#N)c2-c2ccc(C#N)c(F)c2)cc1O [Example 206, formate] | nM | 32.5 |

Prompt: State the recorded IC50 for this entry: COc1ccc(-c2cnc(N3CCC(NCc4ccc5sc(C(=O)NO)cc5c4)CC3)c(C#N)c2-c2ccc(C#N)c(F)c2)cc1O [Example 173, formate]
Completion: 252

Prompt: State the recorded IC50 for this entry: COc1ccc(-c2c(-c3ccc(C#N)c(F)c3)nc(N3CCC(NCc4ccc(/C=C/C(=O)NO)cc4)CC3)n3ccnc23)cc1O [Example 70, formate]
Completion: 26.5

Prompt: State the recorded IC50 for this entry: N#Cc1ccc(-c2cc(OCCCCCCC(=O)NO)cc(N3CCC(N)CC3)n2)cc1F [Example 31, hydrochloride]
Completion: 263

====

Collected IC50 values appear next to each entry.
- target.system: pan-HDAC
- protocol.description: In vitro enzyme inhibition assay - HDAC (HDAC-Glo I/II), pan-HDAC
- Type: biochemical
Counter-ions that a name gives are not always drawn.
The reply should contain only the number, in nM.

Use the examples below as a reference point.
| molecule | target.system | IC50 [nM] |
| --- | --- | --- |
| COc1ccc(-c2cnc(N3CCC(NC(C)c4ccc(/C=C/C(=O)NO)cc4)CC3)c(C#N)c2-c2ccc(C#N)c(F)c2)cc1O (stereo not shown) [Example 210, formate] | pan-HDAC | 2.5 |
| Cc1noc2cc(-c3cnc(N4CCC(NCc5ccc(/C=C/C(=O)NO)cc5)CC4)c(C#N)c3-c3ccc(C#N)c(F)c3)c(F)cc12 | pan-HDAC | 57.3 |

Prompt: Look up IC50 with pan-HDAC for this molecule: COc1cc(N2CCC(N)CC2)nc(-c2ccc(C#N)c(F)c2)c1-c1ccc(OC/C=C/C(=O)NO)c(O)c1 [Example 29, hydrochloride]
Completion: 66.9

Prompt: Look up IC50 with pan-HDAC for this molecule: COc1ccc(-c2cnc(N3CCC(NCc4cnc(/C=C/C(=O)NO)nc4)CC3)c(C#N)c2-c2ccc(C#N)c(F)c2)cc1O [Example 106, formate]
Completion: 4.85

Prompt: Look up IC50 with pan-HDAC for this molecule: N#Cc1ccc(-c2nc(N3CCC(N)CC3)cc(OCCCCCCC(=O)NO)c2-c2ccc(OCCO)cc2)cc1F [Example 17, formate]
Completion: 21.6

====

- Test system: NCI-H526 cells
- protocol.description: In vitro cell inhibition assay - NCI-H526 cell proliferation (CellTiter-Glo)
- Format: cell-based
- setup.conditions: Homo sapiens, NCI-H526, 120 h, H526 small cell lung cancer cell proliferation, 5 days
Structures can show the parent of a compound that is named as a salt.
assay.metric: pIC50
pIC50 (log units): -log10 of the concentration in mol/L.

Use the examples below as a reference point.
| molecule | pIC50 |
| --- | --- |
| CC(C)(O)COc1ccc(-c2cnc(N3CCC(NCc4ccc(/C=C/C(=O)NO)cn4)CC3)c(C#N)c2-c2ccc(C#N)c(F)c2)cc1O [Example 205, formate] | 7.41 |
| COc1ccc(-c2cnc(N3CCC(NCc4cnc(/C=C/C(=O)NO)s4)CC3)c(C#N)c2-c2ccc(C#N)c(F)c2)cc1O [Example 112] | 7.20 |
| COc1ccc(-c2cnc(N3CCC(NCc4ccc(/C=C/C(=O)NO)cc4)CC3)c(CC#N)c2-c2ccc(C#N)c(F)c2)cc1O [Example 233, formate] | 8.08 |
| COc1ccc(-c2cnc(N3CCC(NCc4ccc(/C=C/C(=O)NO)c(C#N)c4)CC3)c(C#N)c2-c2ccc(C#N)c(F)c2)cc1O [Example 162] | 7.73 |
| COc1ccc(-c2cnc(N3CCC(NCc4ccc(/C=C/C(=O)NO)cc4)CC3)c(F)c2-c2ccc(C#N)nc2)cc1O [Example 268, formate] | 8.65 |

Prompt: Look up pIC50 with NCI-H526 cells for this molecule: COc1ccc(-c2cnc(N3CCC(NCc4cccc(/C=C/C(=O)NO)c4)CC3)c(C#N)c2-c2ccc(C#N)c(F)c2)cc1O [Example 114]
Completion: 6.81

Numbers sourced from patent US20250304549A1.
